FYI, the data here is from PubChem BioAssay (NCI).

- protocol.notes: NCI Yeast Anticancer Drug Screen. Data for the rad50EPP+ strain (AID 151)
- condition.set: S. cerevisiae rad50 mutant strain, at 11.0 µM, active compounds read high
This is part of a sample that, as a whole, favours compounds with a hit. Of some 79,000 tested, about 15% had one in any assay.
Label fulfilled when growth inhibition is at or above 20%; otherwise label not fulfilled.

CCC1(O)C(=O)OCc2c1cc1n(c2=O)Cc2cc3c(N)cccc3nc2-1 (centres undefined) ... not fulfilled
CCCCCCCN1C(=O)c2ccccc2C1=O ... not fulfilled

Enquiry: Please tell me: is the molecule `CCCCCCCC/C=C\CCCCCCCCN` at or over 20% in terms of growth inhibition?
Return: fulfilled

Enquiry: Is reported growth inhibition greater than or equal to 20% here: `O=C(Nc1ccc(Cl)cc1)c1cc2cc(N=Nc3ccccc3Cl)ccc2oc1=O`
Return: fulfilled

Enquiry: Kindly determine if growth inhibition recorded for COC(=O)C(Cc1c[nH]c2ccccc12)N1CN(C)c2ccccc2C1=O (centres undefined) is above or exactly 20%.
Return: not fulfilled

Enquiry: Does the molecule `O=C(C#Cc1ccccc1)Nc1ccccc1` have recorded growth inhibition that is 20% or more?
Return: fulfilled

Enquiry: growth inhibition >= 20% for `COC(=O)C(Cl)(Cl)N=Nc1c(Cl)cc(Cl)c(C)c1Cl` ?
Return: fulfilled

Enquiry: Can [N-]=[N+]=NC1(c2ccccc2)C(=O)Nc2ccccc2C1=O (centres undefined) be said to have growth inhibition at or above 20%?
Return: not fulfilled
